Where these numbers come from: ChEMBL document CHEMBL4513216

- METHOD SUMMARY: Toxicity liver stage against HepG2, at 10uM
- Format: cell-based
- Set-up: test concentration 10 uM, cell line HepG2-A16-CD81EGFP
- ASSAY SETUP: human, HepG2-A16-CD81EGFP cells; read-out: INHIBITION
Please provide measured cytotoxicity at 10 µM for the entries that follow.
Quick note: number first, unit second.

Hello, I would appreciate it if you could give cytotoxicity at 10 µM for each entry below.
1. Cc1cc(CN(C)CC2CCCCC2)no1
2. Cc1ccc(CC(=O)N(CC2CN(C)CCO2)c2nccs2)cn1 (centres undefined)
3. Cc1cnn(CC2CCCCN2Cc2cnc(C)s2)c1 (centres undefined)
4. Cc1c(CN2CCCC2(C)C(=O)NC2CCCC2)cnn1C (centres undefined)
5. CC(CN1CCOC1=O)NC(=O)c1cccc(Cl)c1Cl (centres undefined)

1. 13.2%
2. -9.89%
3. -11.3%
4. 1.05%
5. -3.26%

----------
- METHOD SUMMARY: Toxicity liver stage against HepG2, at 10uM
- Assay type: cell-based
- Design: test concentration 10 uM, cell line HepG2-A16-CD81EGFP
- ASSAY SETUP: human, HepG2-A16-CD81EGFP cells; read-out: INHIBITION
Please go through the items and note down their cytotoxicity at 10 µM.
Answers are plain numbers, in %.

Below, 2 molecules whose answers are already recorded.
{"MOLECULE": "CCn1nnc2cc(C(=O)N3CCCC3Cn3cc(C)cn3)ccc21 (stereo not drawn)", "UNIT DESCRIPTOR": "%", "cytotoxicity at 10 µM": -9.8}
{"MOLECULE": "O=C(NC1CCN(c2nccs2)CC1)c1cccs1", "UNIT DESCRIPTOR": "%", "cytotoxicity at 10 µM": 4.17}

Now for another entry.
Entry under test: "O=C(O)CCCNC(=O)N1CCc2c([nH]c3ccc(Cl)cc23)C1" . Its cytotoxicity at 10 µM was 8.13

----------
- METHOD SUMMARY: Toxicity liver stage against HepG2, at 10uM
- Assay type: cell-based
- Design: test concentration 10 uM, cell line HepG2-A16-CD81EGFP
- ASSAY SETUP: human, HepG2-A16-CD81EGFP cells; read-out: INHIBITION
Please go through the items and note down their cytotoxicity at 10 µM.
Give bare numbers, in %.

{"COMPOUND": "CN(C)c1cc(CNC(=O)CC2CCCCC2)ccn1", "cytotoxicity at 10 µM [%]": 9.24}
{"COMPOUND": "CCC1=N[C@@]2(CC[C@@H]3CN(S(=O)(=O)N(C)C)C[C@@H]32)C(=O)N1CC(C)C", "cytotoxicity at 10 µM [%]": 10.3}
{"COMPOUND": "CCSCCNC(=O)Nc1cc(C(=O)N2CCOCC2)ccc1Cl", "cytotoxicity at 10 µM [%]": -55.2}
{"COMPOUND": "COCCNS(=O)(=O)c1c(C)sc2ccccc12", "cytotoxicity at 10 µM [%]": 1.11}
{"COMPOUND": "Cc1nn(-c2ccccc2)cc1C(=O)N1CCCN2CCCC2C1 (stereo unspecified)", "cytotoxicity at 10 µM [%]": -2.21}
{"COMPOUND": "Cc1nc[nH]c1CN1C[C@H]2CC[C@@H](C1)N(C(=O)CCc1cnn(C)c1)C2", "cytotoxicity at 10 µM [%]": -14.1}

Required: cytotoxicity at 10 µM, one value per compound below.
1. COc1ccc(CN(C)c2ncc(S(N)(=O)=O)s2)c(OC)c1
2. CCS(=O)(=O)N1Cc2ncn(C)c2C(COCC2CCOCC2)C1 (stereo unspecified)
3. Nc1nc(N)c2c(n1)OC1(CCCN(Cc3nccs3)CC1)C2 (stereo unspecified)
4. Cc1ccc(C(=O)NCC(O)CN2CCCC2=O)c(C)c1 (stereo unspecified)
5. CC(=O)N1CCCC(c2nc(N(C)C)ncc2-c2cccc(F)c2)C1 (stereo unspecified)

1: -2.03; 2: -72.6; 3: -2.25; 4: -6.68; 5: -34.8

----------
Please provide measured cytotoxicity at 10 µM for the entries that follow.
- METHOD SUMMARY: Toxicity liver stage against HepG2, at 10uM
- Assay type: cell-based
- Set-up: test concentration 10 uM, cell line HepG2-A16-CD81EGFP
- ASSAY SETUP: human, HepG2-A16-CD81EGFP cells; read-out: INHIBITION
Answers are plain numbers, in %.

Here's what some known entries look like.
{"COMPOUND": "CCn1cc(-c2cc(C(F)F)n3nc(CCC(=O)O)nc3n2)cn1", "MEASURED RESULT": -2.78}
{"COMPOUND": "Cn1cnnc1C1CCCN(C(=O)c2n[nH]c3ccccc23)C1 (centres undefined)", "MEASURED RESULT": 0.914}
{"COMPOUND": "CCS(=O)(=O)N1CCC2(CCN(Cc3nccs3)CC2)CC1", "MEASURED RESULT": 7.13}

// moving on: another record for cytotoxicity at 10 µM
Lookup result for "CCc1nc(C)c([C@H]2CN(C)C[C@@H]2C(=O)Nc2ccc(OC)nc2)[nH]1" ; measured cytotoxicity at 10 µM: -3.59
